Value source: ChEMBL document CHEMBL2218924

# Tested System: High affinity nerve growth factor receptor (Homo sapiens) (UniProt P04629)
# Sequence (P04629 33-796 limits assumed): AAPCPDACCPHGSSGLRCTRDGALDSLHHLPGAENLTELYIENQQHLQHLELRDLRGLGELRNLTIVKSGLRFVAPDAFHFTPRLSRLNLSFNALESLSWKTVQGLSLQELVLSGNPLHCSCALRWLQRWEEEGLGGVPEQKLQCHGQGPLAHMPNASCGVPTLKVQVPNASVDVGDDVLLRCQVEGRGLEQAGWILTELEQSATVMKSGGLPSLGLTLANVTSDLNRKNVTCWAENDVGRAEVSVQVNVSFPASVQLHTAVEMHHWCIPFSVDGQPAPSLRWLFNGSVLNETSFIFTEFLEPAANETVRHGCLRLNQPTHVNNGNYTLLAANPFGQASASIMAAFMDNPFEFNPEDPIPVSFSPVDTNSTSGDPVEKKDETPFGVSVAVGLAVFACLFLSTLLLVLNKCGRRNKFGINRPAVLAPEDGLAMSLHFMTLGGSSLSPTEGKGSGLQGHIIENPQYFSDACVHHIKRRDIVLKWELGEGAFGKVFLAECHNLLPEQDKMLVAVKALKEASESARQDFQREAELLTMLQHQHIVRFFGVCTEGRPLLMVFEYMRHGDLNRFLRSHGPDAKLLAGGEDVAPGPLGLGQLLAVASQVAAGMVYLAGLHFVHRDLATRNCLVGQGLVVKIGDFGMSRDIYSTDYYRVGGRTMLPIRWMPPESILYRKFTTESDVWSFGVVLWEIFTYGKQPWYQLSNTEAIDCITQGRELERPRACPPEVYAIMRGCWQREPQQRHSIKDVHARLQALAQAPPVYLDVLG
# Assay Setup: at 1 µM
Is residual activity at least 60%? Then label 1. If not, label 0.

                               query_smiles  assigned_label
0   N#C/C(=C\c1ccc(O)c(O)c1)C(=O)NCc1ccccc1         label 1
1  O=C1C(Cl)=C(N2C(=O)CCC2=O)C(=O)c2ccccc21         label 1
2     Cc1cc(C)c(/C=C2\C(=O)Nc3ccccc32)[nH]1         label 0
3     O=c1cc(N2CCOCC2)oc2c(-c3ccccc3)cccc12         label 1
4  Nc1nccc(-c2c(-c3ccc(F)cc3)ncn2C2CCNCC2)n1         label 1
5  c1ccc(-c2cnc(Nc3ccc(OCCN4CCCC4)cc3)s2)cc1         label 0
